# assayed_system: Aspartate--tRNA(Asp/Asn) ligase (Mycobacterium tuberculosis (strain ATCC 25618 / H37Rv)); further: in the data most compounds retested in dose-response had high values
# method_summary: Assay for Asp RNA synthetase-1 from Mycobacterium tuberculosis
# Type: functional
# Design: scale not given: direction of the effect not stated beside the values
# protocol_conditions: 30 µM
assay_metric: Percent Effect (%)
Quick reminder: number only, in %, skip the unit.

Cc1nn(C)c(N(C)C)c1CNC1CCc2c(F)cccc21 (stereo not given)
-3.35
CCOc1ncccc1CNC(=O)N1CCCC1c1ccncc1 (stereo not given)
-0.287
Cc1ccc(NC(=O)CNc2cccc3c2CCCC3)c(Br)c1
-0.719
c1cnnc(N2CCCC2CNCc2ccsc2)c1 (stereo not given)
-3.81
O=C(COCc1ccccc1)N1CCC(OCc2cccnc2)CC1
-4.62
CN1CCCN(c2nccc(-c3c[nH]nc3C3CCCCC3)n2)CC1
14.1
CCn1cc(CN(C)S(=O)(=O)c2cc(Cl)ccc2Cl)cn1
-5.08
CN(C)c1ncnc2c1CCN(CC1CCCC1)CC2
-1.05

Documented Percent Effect of COCC1CC2(CCN(Cc3ccc(OC)cc3)CC2)CN1C(C)C (stereo not given) : -1.24

Documented Percent Effect of "CO[C@@H]1CC[C@H]2[C@H]1OCCN2C(=O)C1=CCCC1" : 3.45

Documented Percent Effect of "Cn1cc(CN2C[C@@H]3COC[C@]3(COc3ccc(C#N)cn3)C2)cn1" : 3.33

Documented Percent Effect of "O=C1C[C@H]2[C@@H](CCN2C(=O)c2ccccc2)N1CCN1CCOCC1" : -3.74

Documented Percent Effect of CC(Cn1cncn1)NCc1nncn1C1CCCCC1 (stereo not given) : -4.88

Documented Percent Effect of c1ccc(-c2cnc(CNC3CCCN(c4cccnn4)C3)o2)cc1 (stereo not given) : -3.48

Documented Percent Effect of "O=C(C1=CCCC1)N1C[C@H](Oc2cccnc2)[C@H]2OCCC[C@H]21" : -2.63

* * *

Measured Percent Effect, listed per entry for reference.
# assayed_system: Aspartate--tRNA(Asp/Asn) ligase (Mycobacterium tuberculosis (strain ATCC 25618 / H37Rv)); further: in the data most compounds retested in dose-response had high values
# method_summary: Assay for Asp RNA synthetase-1 from Mycobacterium tuberculosis
# Format: functional
# Design: scale not given: direction of the effect not stated beside the values
# protocol_conditions: 30 µM
// return the numeric value with its unit appended

Example cases with answers are listed next.
O=C1CCC2(CCN(Cc3cc(F)cc(F)c3)CC2)CN1CCO
-0.529%
CNC(=O)CN1CCCC12CCN(C(=O)c1ccsc1)CC2
0.137%
COc1ccc2c(c1)CCCN2Cc1nc2c(cnn2C)c(=O)[nH]1
-4.23%
CC1CN(CC(=O)Nc2nncs2)CCN1Cc1nccn1C (stereo not drawn)
4.22%
O=C(c1cccc(Cl)c1)N1CCCn2c(CN3CCCCC3)nnc2C1
-2.93%
O=C(NCc1cccnc1-n1cccn1)C1CC(=O)N(CC2CC2)C1 (stereo not drawn)
-2.05%

Documented Percent Effect of CCC1CN(C(=O)c2ccc(=O)[nH]c2)CCC(=O)N1Cc1ccccc1 (stereo not drawn) : -4.62%

Documented Percent Effect of "CCc1ccc(C(=O)O)cc1S(=O)(=O)Nc1ccc(F)c(C#N)c1" : 4.35%

* * *

# assayed_system: Shiga toxin 2 (Escherichia coli O157:H7) (UniProt P09385+P09386)
# method_summary: E. coli 0.157:H7 Shiga Toxin SOP - stx2 screening assay
# Type: functional
# Set-up: scale not given: direction of the effect not stated beside the values
# protocol_conditions: 30 µM
assay_metric: Percent Effect (%)
Quick reminder: number only, in %, skip the unit.

Documented Percent Effect of CCC(C)(C)NC(=O)C1CC(=O)N(CC2CC2)C1 (centres undefined) : 28.9

Documented Percent Effect of O=C(c1cccnc1)N1CCc2ncnc(C3CCOC3)c2CC1 (centres undefined) : -9.92

Documented Percent Effect of "COc1cccc(F)c1C(=O)N1C[C@@H](CN(C)CCO)[C@@H](CO)C1" : -11.4

Documented Percent Effect of Cc1cnn(CC2CN(CC(=O)N(C)Cc3cccs3)CCO2)c1 (centres undefined) : -8.69

Documented Percent Effect of CC(Cc1ccco1)NC(=O)Nc1ccc(S(C)(=O)=O)nc1 (centres undefined) : -17.3

Documented Percent Effect of "COc1ccc(OC)c(CNCCc2cc(F)cc3c2OCOC3)c1" : 7.51

Documented Percent Effect of "Cn1cc(CN2C[C@@H]3COC[C@]3(CNC(=O)c3ccsc3)C2)cn1" : -3.31

Documented Percent Effect of CNc1nc(C)c(C(=O)N2CCCCC2CN2CCCCCC2)s1 (centres undefined) : 1.34

Documented Percent Effect of "Cc1ccc(S(=O)(=O)N2CCc3nc(C4CCNCC4)ncc3C2)cc1" : 8.71

All values here come from ChEMBL document CHEMBL3988442.
